Let's look at some binders and their measured IC50 (ug/ml), neutralization.
- Assay Target: HIV-1 92RW020 Env (pseudovirus) (HIV-1 92RW020)
- Assay Comment: cell-based or functional assay
Kindly answer with a numeric value in µg/mL, unit omitted.

* 1489_I13 (PG16) (TCN-120) (antibody, V domains shown) VH: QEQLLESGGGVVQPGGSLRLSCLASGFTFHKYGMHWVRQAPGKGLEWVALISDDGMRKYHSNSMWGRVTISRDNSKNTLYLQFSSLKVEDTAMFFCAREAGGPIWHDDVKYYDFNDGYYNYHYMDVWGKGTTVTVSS VL: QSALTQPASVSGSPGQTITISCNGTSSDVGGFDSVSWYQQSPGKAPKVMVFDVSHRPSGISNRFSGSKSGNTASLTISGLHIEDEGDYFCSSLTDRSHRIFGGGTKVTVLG | 0.03
* 1469_M23 (PG16) (TCN-118) (antibody, V domains shown) VH: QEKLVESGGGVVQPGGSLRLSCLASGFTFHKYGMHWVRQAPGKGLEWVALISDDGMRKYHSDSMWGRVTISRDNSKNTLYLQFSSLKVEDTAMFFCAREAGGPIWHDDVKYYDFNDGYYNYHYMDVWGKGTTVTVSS VL: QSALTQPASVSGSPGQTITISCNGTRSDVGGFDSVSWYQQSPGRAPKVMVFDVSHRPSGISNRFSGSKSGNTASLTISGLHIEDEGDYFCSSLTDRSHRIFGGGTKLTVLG | 0.05
* 1456_A12 (PG16) (TCN-117) (antibody, V domains shown) VH: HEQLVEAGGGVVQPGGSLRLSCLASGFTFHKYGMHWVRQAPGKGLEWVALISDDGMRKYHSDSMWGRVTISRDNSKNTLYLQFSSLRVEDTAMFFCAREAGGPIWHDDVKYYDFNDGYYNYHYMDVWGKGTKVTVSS VL: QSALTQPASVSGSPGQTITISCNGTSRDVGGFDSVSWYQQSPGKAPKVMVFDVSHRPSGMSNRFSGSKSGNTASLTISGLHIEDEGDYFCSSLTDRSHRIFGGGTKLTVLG | 0.05

--- query ---
## Input Value lookup for IC50 (ug/ml), neutralization; key = 1503_H05 (PG16) (TCN-119) (antibody, V domains shown) VH: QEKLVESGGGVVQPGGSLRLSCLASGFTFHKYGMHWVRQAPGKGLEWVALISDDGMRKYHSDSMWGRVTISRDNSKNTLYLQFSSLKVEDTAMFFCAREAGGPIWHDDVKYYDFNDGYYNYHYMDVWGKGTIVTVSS VL: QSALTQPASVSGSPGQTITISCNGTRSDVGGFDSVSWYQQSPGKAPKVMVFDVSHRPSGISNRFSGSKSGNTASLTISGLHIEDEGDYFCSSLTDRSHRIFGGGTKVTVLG
## Output 0.02
